- measuredOn: HLA-A*0201 (human)
- experimentSummary: competition with 125I-labelled standard peptide 941.01 for purified HLA-A*0201, gel filtration
measurementType: binding affinity ratio (IC50 of standard peptide / IC50 of test peptide)

RAYSEKVT (modifications not checked) [RAYSEKVT (Kallikrein, position 186)]; -0.0001

A = SIEPEEFL (modifications not checked) [SIEPEEFL (Kallikrein, position 159)]
B = SAHDTTVSGL (modifications not checked) [… (PAP, position 287)]
Of A and B , whose reported binding affinity ratio (IC50 of standard peptide / IC50 of test peptide) is numerically smaller? Which one? Tell me its label.
A

P = SAVKNFTEI (modifications not checked) [… (PSM, position 634)]
Q = RLHPYKDFI (modifications not checked) [… (PAP, position 180)]
Of P and Q , whose reported binding affinity ratio (IC50 of standard peptide / IC50 of test peptide) is numerically smaller? Which one? Tell me its label.
P
(P: 0.0001, Q: 0.0006)

a = RAFIDPLGL (modifications not checked) [… (PSM, position 673)]
b = SIALSVGCT (modifications not checked) [… (Kallikrein, position 7)]
Of a and b , whose reported binding affinity ratio (IC50 of standard peptide / IC50 of test peptide) is numerically smaller? Which one? Tell me its label.
b
(b: -0.0001, a: 0.0001)
